- Test system: HBV
- Procedure Text: HBV infection of primary human hepatocytes (PHHs)
- Type: cell-based
- Study Conditions: Hepatitis B virus, Hepatocyte; PHH; read-out: EC50, pgRNA
Quantity Measured: pEC50
Convention used: pEC50 is expressed as -log10 of the molar concentration.

Task: Find the recorded pEC50 belonging to CCOC(=O)C1=C(CN2CCOCC2)NC(c2nccs2)=NC1c1ccc(F)cc1Br (stereo not shown) [GLS4] and report it.
Result: 5.71

* * *

- Procedure Text: in vitro
- Study Conditions: human
Quantity Measured: CC50 at 4 days

Task: Field request: CC50 at 4 days | item: O=C(NCc1cnc(C(F)(F)F)s1)c1ccc2c(c1)NC(=O)c1ccccc1S2(=O)=O
Result: > 10 µM

* * *

- Procedure Text: in vivo
- Study Conditions: male, cynomolgus monkey, po, 2 mg/kg
Quantity Measured: AUC(0-inf) (ng·h/mL)
Lab book: enter the figure in ng·h/mL, no units written.

Task: Which AUC(0-inf) reading was recorded for the compound O=C(NCc1cnc(C(F)(F)F)s1)c1ccc2c(c1)NC(=O)c1ccccc1S2(=O)=O [ABI-H0731] ?
Result: 4340

* * *

- Test system: HBV Cp T33N
- Procedure Text: microbe, parasite or virus in culture
- Format: cell-based, Hepatitis B virus
- Study Conditions: Hepatitis B virus, Huh-7, read-out: Mean EC50
Quantity Measured: pEC50
pEC50 here is simply -log10 of the concentration when that concentration is written in mol/L.

// worked examples, pEC50 included
Compound: CCOC(=O)C1=C(CN2CCOCC2)NC(c2nccs2)=NC1c1ccc(F)cc1Br (centres unmarked)
Tgt: HBV Cp T33N
pEC50: 5.20

Compound: O=C1CO[C@H](c2cn(-c3ccc(F)cc3)nc2-c2ccc(F)cc2)N1CCc1ccc(O)cc1
Tgt: HBV Cp T33N
pEC50: 5.89

Compound: O=C(NCc1cnc(C(F)(F)F)s1)c1ccc2c(c1)NC(=O)c1ccccc1S2(=O)=O
Tgt: HBV Cp T33N
pEC50: 5.51

Task: Param item = C=C1[C@H](CO)[C@@H](O)C[C@@H]1n1cnc2c(=O)[nH]c(N)nc21 ; retrieve measured pEC50.
Result: 8.46

* * *

- Procedure Text: in vivo
- Study Conditions: male, Sprague-Dawley, rat, po, 2 mg/kg
- Method: The same solution formulation was administered per os (p.o.) in the same species to determine oral bioavailability. Pharmacokinetic studies were performed at Wuxi (Shanghai, China) for studies in male mouse, rat, and cynomolgus monkey and at Sai (Pune, India) for studies in male dog. For all oral studies, the formulation was administered in the fasted state (food removed at least 12 h prior to dosing) to groups of 3 per arm.
Quantity Measured: AUC(0-inf)
State the value with its unit after it.

Task: Fill in: AUC(0-inf) of O=C(NCc1cnc(C(F)(F)F)s1)c1ccc2c(c1)NC(=O)c1ccccc1S2(=O)=O is ___
Result: 3160 ng·h/mL

* * *

- Test system: HBV Cp Y118F
- Procedure Text: microbe, parasite or virus in culture
- Assay type: cell-based, Hepatitis B virus
- Study Conditions: Hepatitis B virus, Huh-7, read-out: Mean EC50
pEC50: −log10 of the molar value.
pEC50 below 6 gives not satisfied; pEC50 at or above it gives satisfied.

Molecule: O=C(NCc1cnc(C(F)(F)F)s1)c1ccc2c(c1)NC(=O)c1ccccc1S2(=O)=O
Class: not satisfied

Molecule: CCOC(=O)C1=C(CN2CCOCC2)NC(c2nccs2)=NC1c1ccc(F)cc1Br (centres unmarked)
Class: satisfied

Let us examine a further case.
Task: Is pEC50 at least 6? Consider C=C1[C@H](CO)[C@@H](O)C[C@@H]1n1cnc2c(=O)[nH]c(N)nc21
Result: satisfied
